biological target: UniProt:Q00959; experiment: Allosteric modulation of rat GluN2A expressed in Xenopus laevis oocytes assessed as L-glutamate/glycine-induced current response at 100 uM at holding potential -60 mV by two-electrode voltage clamp method relative to L-glutamate/glycine; type: cell-based
Sequence (Q00959 23-1464 limits assumed): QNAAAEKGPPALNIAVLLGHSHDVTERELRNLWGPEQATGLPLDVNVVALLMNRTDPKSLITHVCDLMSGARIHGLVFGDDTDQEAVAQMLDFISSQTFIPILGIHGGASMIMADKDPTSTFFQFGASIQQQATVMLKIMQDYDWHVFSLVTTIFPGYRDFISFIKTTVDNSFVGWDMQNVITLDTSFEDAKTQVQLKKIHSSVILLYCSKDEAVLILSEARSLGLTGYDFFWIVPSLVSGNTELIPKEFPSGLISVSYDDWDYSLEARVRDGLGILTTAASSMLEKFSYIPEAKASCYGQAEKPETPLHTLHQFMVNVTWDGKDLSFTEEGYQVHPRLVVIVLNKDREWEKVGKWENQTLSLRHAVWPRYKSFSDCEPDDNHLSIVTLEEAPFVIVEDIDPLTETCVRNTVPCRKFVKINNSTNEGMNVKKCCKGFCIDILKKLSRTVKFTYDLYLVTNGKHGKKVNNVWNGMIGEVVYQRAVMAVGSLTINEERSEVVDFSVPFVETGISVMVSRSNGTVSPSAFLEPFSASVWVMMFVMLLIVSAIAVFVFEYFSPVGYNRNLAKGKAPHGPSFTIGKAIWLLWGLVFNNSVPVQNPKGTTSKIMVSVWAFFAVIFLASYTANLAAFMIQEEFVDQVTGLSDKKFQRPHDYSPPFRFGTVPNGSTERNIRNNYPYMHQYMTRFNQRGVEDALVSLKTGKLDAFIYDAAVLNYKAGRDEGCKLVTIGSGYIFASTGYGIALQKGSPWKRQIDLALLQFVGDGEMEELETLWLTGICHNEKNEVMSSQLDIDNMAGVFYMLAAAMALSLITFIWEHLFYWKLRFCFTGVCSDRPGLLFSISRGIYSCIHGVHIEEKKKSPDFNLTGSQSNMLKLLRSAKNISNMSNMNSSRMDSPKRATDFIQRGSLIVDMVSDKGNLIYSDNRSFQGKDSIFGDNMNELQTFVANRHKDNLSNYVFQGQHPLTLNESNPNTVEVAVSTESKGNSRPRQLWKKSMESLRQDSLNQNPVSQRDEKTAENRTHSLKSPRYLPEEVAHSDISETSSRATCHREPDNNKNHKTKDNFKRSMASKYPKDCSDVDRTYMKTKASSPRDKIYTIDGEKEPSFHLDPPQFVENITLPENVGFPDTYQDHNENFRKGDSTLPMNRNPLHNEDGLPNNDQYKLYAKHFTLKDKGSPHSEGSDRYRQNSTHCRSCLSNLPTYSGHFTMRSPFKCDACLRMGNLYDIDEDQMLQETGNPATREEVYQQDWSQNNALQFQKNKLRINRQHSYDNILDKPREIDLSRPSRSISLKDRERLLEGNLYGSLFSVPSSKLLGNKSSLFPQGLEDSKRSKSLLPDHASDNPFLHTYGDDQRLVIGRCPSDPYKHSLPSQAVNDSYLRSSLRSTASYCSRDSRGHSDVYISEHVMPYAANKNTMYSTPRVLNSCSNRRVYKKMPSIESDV
Everything with Activity lower than 90% is not fulfilled; everything else, including exactly 90%, is fulfilled.

>  <MOLECULE>
O=C(O)c1ccc2cc(CCCC3CCCC3)ccc2c1

>  <GROUP LABEL>
fulfilled

$$$$
>  <MOLECULE>
O=C(O)c1ccc2cc(C3CC3)ccc2c1

>  <GROUP LABEL>
fulfilled

$$$$
>  <MOLECULE>
COc1ccccc1/C=C/c1ccc2cc(O)c(C(=O)O)cc2c1

>  <GROUP LABEL>
fulfilled

$$$$
>  <MOLECULE>
CC(C)CSCc1ccc2cc(C(=O)O)ccc2c1

>  <GROUP LABEL>
fulfilled

$$$$
>  <MOLECULE>
O=C(O)c1ccc2cc(I)c3ccccc3c2c1

>  <GROUP LABEL>
fulfilled

$$$$
>  <MOLECULE>
CCCCCc1ccc2cc(C(=O)O)ccc2c1

>  <GROUP LABEL>
fulfilled

$$$$
>  <MOLECULE>
CC(C)CCCc1ccc2cc(C(=O)O)c(O)cc2c1

>  <GROUP LABEL>
fulfilled

$$$$
>  <MOLECULE>
CC(C)C(=O)OCc1ccc2cc(C(=O)O)ccc2c1

>  <GROUP LABEL>
not fulfilled

$$$$
>  <MOLECULE>
CC(C)CNC(=O)c1ccc2cc(C(=O)O)ccc2c1

>  <GROUP LABEL>
not fulfilled

$$$$
>  <MOLECULE>
CC(C)CC(Cc1ccc2cc(C(=O)O)ccc2c1)C(=O)O (racemic)

>  <GROUP LABEL>
fulfilled

$$$$
>  <MOLECULE>
O=C(O)c1cc2cc(/C=C/c3cccc([N+](=O)[O-])c3)ccc2cc1O

>  <GROUP LABEL>
not fulfilled

$$$$

====

target: UniProtKB Q00960; experiment: Positive allosteric modulation of rat GluN2B expressed in Xenopus laevis oocytes assessed as potentiation of L-glutamate/glycine-induced current response at holding potential -60 mV by two-electrode voltage clamp method relative to L-glutamate/glycine; format: cell-based
Sequence (Q00960 27-1482 limits assumed): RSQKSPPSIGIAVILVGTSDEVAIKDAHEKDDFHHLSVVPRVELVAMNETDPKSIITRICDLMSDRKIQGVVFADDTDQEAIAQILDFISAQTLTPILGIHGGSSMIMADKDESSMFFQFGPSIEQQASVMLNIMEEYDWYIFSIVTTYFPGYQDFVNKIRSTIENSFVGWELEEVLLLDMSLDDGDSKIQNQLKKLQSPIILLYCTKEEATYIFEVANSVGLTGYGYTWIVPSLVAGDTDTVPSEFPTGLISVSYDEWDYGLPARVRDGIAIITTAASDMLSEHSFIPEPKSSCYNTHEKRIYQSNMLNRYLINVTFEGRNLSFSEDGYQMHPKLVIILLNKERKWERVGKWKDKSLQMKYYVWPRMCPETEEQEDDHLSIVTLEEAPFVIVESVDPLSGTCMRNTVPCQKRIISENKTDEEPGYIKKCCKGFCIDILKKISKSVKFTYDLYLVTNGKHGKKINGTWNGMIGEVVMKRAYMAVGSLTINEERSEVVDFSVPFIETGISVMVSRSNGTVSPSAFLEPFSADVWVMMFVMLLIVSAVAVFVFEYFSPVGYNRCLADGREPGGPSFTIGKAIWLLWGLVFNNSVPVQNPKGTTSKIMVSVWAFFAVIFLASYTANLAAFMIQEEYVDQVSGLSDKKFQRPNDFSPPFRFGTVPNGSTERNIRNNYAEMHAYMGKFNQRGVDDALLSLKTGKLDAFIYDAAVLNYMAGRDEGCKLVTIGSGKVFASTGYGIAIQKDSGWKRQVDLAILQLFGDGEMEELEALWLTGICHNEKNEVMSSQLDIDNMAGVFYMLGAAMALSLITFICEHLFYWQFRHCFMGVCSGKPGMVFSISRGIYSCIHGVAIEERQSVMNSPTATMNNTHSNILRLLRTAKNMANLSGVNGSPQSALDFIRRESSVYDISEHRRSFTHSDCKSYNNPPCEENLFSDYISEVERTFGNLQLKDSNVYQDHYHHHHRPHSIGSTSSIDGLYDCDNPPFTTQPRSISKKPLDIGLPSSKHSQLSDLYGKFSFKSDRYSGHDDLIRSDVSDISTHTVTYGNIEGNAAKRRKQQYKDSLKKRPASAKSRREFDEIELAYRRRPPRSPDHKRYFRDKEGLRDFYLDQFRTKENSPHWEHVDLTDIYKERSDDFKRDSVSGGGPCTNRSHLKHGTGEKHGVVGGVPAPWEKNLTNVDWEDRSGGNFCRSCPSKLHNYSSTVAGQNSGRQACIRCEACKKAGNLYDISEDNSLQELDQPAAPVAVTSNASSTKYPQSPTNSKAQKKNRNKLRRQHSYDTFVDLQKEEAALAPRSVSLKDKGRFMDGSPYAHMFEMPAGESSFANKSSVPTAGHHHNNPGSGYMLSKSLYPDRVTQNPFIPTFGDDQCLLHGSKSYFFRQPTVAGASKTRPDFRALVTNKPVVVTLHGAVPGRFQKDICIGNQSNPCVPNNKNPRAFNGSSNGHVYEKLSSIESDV
The entries below are paired with their reported Activity.

>  <COMPOUND>
CC(C)CCC(C)c1ccc2cc(C(=O)O)ccc2c1 (racemic)

>  <Activity>
192%

$$$$
>  <COMPOUND>
C=C(CCC(C)C)c1ccc2cc(C(=O)O)ccc2c1

>  <Activity>
417%

$$$$
>  <COMPOUND>
CC(C)CCCc1ccc2cc(C(=O)O)ccc2c1

>  <Activity>
102%

$$$$
>  <COMPOUND>
O=C(O)c1ccc2cc(CCCC3CCCC3)ccc2c1

>  <Activity>
61.9%

$$$$

====

Entries annotated with measured Activity
target: UniProt:Q62645; experiment: Allosteric modulation of rat GluN2D expressed in Xenopus laevis oocytes assessed as L-glutamate/glycine-induced current response at 100 uM at holding potential -60 mV by two-electrode voltage clamp method relative to L-glutamate/glycine; format: cell-based
Sequence (Q62645 whole entry): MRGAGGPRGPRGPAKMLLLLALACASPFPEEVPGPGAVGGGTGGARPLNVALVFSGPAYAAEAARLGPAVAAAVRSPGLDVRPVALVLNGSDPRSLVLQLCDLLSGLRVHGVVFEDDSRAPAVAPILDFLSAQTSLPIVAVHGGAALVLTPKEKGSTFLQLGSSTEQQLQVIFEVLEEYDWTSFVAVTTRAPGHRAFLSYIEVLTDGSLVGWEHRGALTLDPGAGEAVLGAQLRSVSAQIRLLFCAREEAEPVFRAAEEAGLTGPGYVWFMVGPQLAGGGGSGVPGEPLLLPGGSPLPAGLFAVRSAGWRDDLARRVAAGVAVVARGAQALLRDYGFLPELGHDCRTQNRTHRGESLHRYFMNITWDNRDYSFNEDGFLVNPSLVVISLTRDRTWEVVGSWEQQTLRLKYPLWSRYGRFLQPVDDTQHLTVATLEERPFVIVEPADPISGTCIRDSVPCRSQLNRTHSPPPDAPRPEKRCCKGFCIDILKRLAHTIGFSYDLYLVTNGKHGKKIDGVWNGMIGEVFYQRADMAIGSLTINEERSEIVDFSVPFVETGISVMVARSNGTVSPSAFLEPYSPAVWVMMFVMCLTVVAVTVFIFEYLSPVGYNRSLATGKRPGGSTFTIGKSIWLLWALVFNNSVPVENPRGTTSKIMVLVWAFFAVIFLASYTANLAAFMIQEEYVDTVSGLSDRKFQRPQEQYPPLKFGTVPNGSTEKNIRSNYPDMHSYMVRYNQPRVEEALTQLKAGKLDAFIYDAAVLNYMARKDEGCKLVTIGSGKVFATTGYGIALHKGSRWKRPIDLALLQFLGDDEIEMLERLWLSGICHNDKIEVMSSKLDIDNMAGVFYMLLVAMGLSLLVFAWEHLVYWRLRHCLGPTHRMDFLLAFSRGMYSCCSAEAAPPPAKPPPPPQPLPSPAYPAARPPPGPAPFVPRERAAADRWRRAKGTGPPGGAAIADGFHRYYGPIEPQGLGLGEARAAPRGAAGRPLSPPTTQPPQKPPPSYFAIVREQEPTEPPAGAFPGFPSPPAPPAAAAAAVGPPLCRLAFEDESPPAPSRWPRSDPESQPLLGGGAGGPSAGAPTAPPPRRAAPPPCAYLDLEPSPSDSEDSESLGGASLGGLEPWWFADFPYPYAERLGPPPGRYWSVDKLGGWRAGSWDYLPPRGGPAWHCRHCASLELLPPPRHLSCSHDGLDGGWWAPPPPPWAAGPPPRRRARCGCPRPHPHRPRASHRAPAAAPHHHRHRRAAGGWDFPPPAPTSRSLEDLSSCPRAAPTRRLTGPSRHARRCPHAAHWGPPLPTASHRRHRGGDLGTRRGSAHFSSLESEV
MEASURED QUANTITY: Activity

>  <COMPOUND>
CC(C)COC(=O)c1ccc2cc(C(=O)O)ccc2c1

>  <MEASURED QUANTITY>
Activity

>  <READOUT VALUE>
169%

$$$$
>  <COMPOUND>
CC(C)CCCc1ccc2ccc(C(=O)O)cc2c1

>  <MEASURED QUANTITY>
Activity

>  <READOUT VALUE>
80%

$$$$
>  <COMPOUND>
CC(C)CC(Cc1ccc2cc(C(=O)O)ccc2c1)C(=O)O (racemic)

>  <MEASURED QUANTITY>
Activity

>  <READOUT VALUE>
85%

$$$$
>  <COMPOUND>
CCCCCc1ccc2cc(CO)ccc2c1

>  <MEASURED QUANTITY>
Activity

>  <READOUT VALUE>
85%

$$$$
>  <COMPOUND>
O=C(O)c1cc2cc(/C=C/c3ccc([N+](=O)[O-])cc3)ccc2cc1O

>  <MEASURED QUANTITY>
Activity

>  <READOUT VALUE>
34.4%

$$$$
>  <COMPOUND>
O=C(O)c1cc2cc(/C=C/c3ccccc3)ccc2oc1=O

>  <MEASURED QUANTITY>
Activity

>  <READOUT VALUE>
119%

$$$$
